# Test system: Stress Ulcer
# assay.summary: Stress Ulcer
# Format: in vivo, male Wistar rats
# stated.conditions: oral, 1×10^-3 mole in 0.5% CMC, before restraint and water dipping at 23° C. for 7 hours
# Method: After male Wistar rats weighing about 170 g was fasted for 24 hours, the rats were restrained in a stress cage and dipped in water bath at 23° C. till chest of the animals. After 7 hours, the rats were killed and the stomach was isolated. […] The stomach was cut open at the greater curvature, and the length of each ulcer on the membrane was measured. […] The inhibitory ratio (%) of stress ulcer of the test compounds was calculated by the following equation: [formula] […]
measurement.name: Inhibitory ratio of stress ulcer

Illustrative cases are given below, each with its answer.
CCNC(=O)CCCSCc1nnnn1CC [Compound 17] = + (30 to less than 60%)
CCN(C(=O)CCCc1nnnn1-c1ccccc1)C1CCCCC1 [Compound 46] = ++ (more than 60%)
CCN(C(=O)CCCCc1nnnn1-c1ccccc1)C1CCCCC1 [Compound 4] = ++ (more than 60%)
CCN(C(=O)CCCCc1nnnn1C1CCCCC1)C1CCCCC1 [Compound 23] = + (30 to less than 60%)
CCN(CC)C(=O)CCCSCc1nnnn1CC [Compound 18] = + (30 to less than 60%)
CCN(CC)C(=O)CCCCc1nnnn1C [Compound 34] = + (30 to less than 60%)

Moving on to the next molecule.
For the molecule CN(C)c1ccc(NC(=O)CCCSc2nnnn2C)cc1 [Compound 7] , what Inhibitory ratio of stress ulcer is on record?
++ (more than 60%)
